SETTINGS: Patient ID 154, CYP2D6 functional group EM/EM
MEASURED QUANTITY: plasma concentration (ng/mL)
Number only, in ng/mL; omit the unit.

Recorded plasma concentration, per entry:
CC/C(=C(\c1ccccc1)c1ccc(OCCN(C)C)cc1)c1ccc(O)cc1 = 2.65
CCC(=C(c1ccccc1)c1ccc(OCCNC)cc1)c1ccc(O)cc1 = 4.237

Which plasma concentration value is on record for CC/C(=C(\c1ccc(O)cc1)c1ccc(OCCNC)cc1)c1ccccc1 [(Z)-Endoxifen 3-OH-NDM-Tam] ? 3.55

Form field: reported plasma concentration of CC/C(=C(\c1ccccc1)c1ccc(OCCN(C)C)cc1)c1ccccc1 136.90

* * *

SETTINGS: Patient ID 140, CYP2D6 functional group EM/IM
Classify by measured plasma concentration: Criterion met if it is equal to or exceeds 4 ng/mL, Criterion not met if it is smaller.

CC/C(=C(\c1ccc(O)cc1)c1ccc(OCCNC)cc1)c1ccccc1 [(Z)-Endoxifen 3-OH-NDM-Tam] = Criterion met
CC(O)C(=C(c1ccccc1)c1ccc(OCCN(C)C)cc1)c1ccccc1 (racemic) [(E)-a-OH-Tam] = Criterion not met
CCC(=C(c1ccccc1)c1ccc(OCCNC)cc1)c1ccc(O)cc1 = Criterion met
CC/C(=C(/c1ccc(OCCNC)cc1)c1ccc(O[C@@H]2O[C@H](C(=O)O)[C@@H](O)[C@H](O)[C@H]2O)cc1)c1ccccc1 = Criterion not met
CC(O)C(=C(c1ccccc1)c1ccc(OCCN(C)C)cc1)c1ccccc1 (racemic) [(Z)-a-OH-Tam] = Criterion not met

Next up:
Is the recorded value of plasma concentration equal to or greater than 4 ng/mL for this molecule? CC/C(=C(\c1ccccc1)c1ccc(OCCN(C)C)cc1)c1ccccc1 Criterion met

* * *

SETTINGS: Patient ID 168, CYP2D6 functional group PM/PM
Note to self: plasma concentration under 4 ng/mL means T, ties and anything higher get F.

Consider the following illustrative entries.
CC/C(=C(\c1ccc(O)cc1)c1ccc(OCCNC)cc1)c1ccccc1 [(Z)-Endoxifen 3-OH-NDM-Tam] = T
CC/C(=C(/c1ccc(OCCNC)cc1)c1ccc(O[C@@H]2O[C@H](C(=O)O)[C@@H](O)[C@H](O)[C@H]2O)cc1)c1ccccc1 = T
CC/C(=C(\c1ccccc1)c1ccc(OCCN(C)C)cc1)c1ccc(O)cc1 = F

# check: plasma concentration < 4 ng/mL for CC/C(=C(\c1ccccc1)c1ccc(OCCN(C)C)cc1)c1ccccc1 F

Quick check: plasma concentration of CCC(=C(c1ccccc1)c1ccc(OCCNC)cc1)c1ccc(O)cc1 under 4 ng/mL? F

* * *

SETTINGS: Patient ID 157, CYP2D6 functional group EM/EM
With a cut-off of 4 ng/mL, any plasma concentration strictly below it is called t; any plasma concentration meeting it or above is called f.

Some solved entries appear below for comparison.
CC/C(=C(\c1ccc(O)cc1)c1ccc(OCCNC)cc1)c1ccccc1 [(Z)-Endoxifen 3-OH-NDM-Tam] = f
CC/C(=C(/c1ccc(OCCNC)cc1)c1ccc(O[C@@H]2O[C@H](C(=O)O)[C@@H](O)[C@H](O)[C@H]2O)cc1)c1ccccc1 = t
CC/C(=C(\c1ccccc1)c1ccc(OCCN(C)C)cc1)c1ccccc1 = f
CC(O)C(=C(c1ccccc1)c1ccc(OCCN(C)C)cc1)c1ccccc1 (racemic) [(Z)-a-OH-Tam] = t
CCC(=C(c1ccccc1)c1ccc(OCCNC)cc1)c1ccc(O)cc1 = t

Here is another compound to look at.
Does the reported plasma concentration of CC(O)C(=C(c1ccccc1)c1ccc(OCCN(C)C)cc1)c1ccccc1 (racemic) [(E)-a-OH-Tam] stay below 4 ng/mL? t
